assay explanation: Fraction unbound in dog plasma
Assay type: ADME, cell-free, Canis lupus familiaris
quantity name: fraction unbound
Give a plain numeric answer without units written out.

Look up fraction unbound: C[C@H](c1ccc(F)cc1)N(Cc1cccc(C(=O)O)c1)C(=O)c1cnc2ccccc2c1 [PF-05105679]
0.067

====

assay explanation: Volume of distribution at steady state in beagle dog at 0.2 mg/kg, iv
Format: ADME, organism-based, Canis lupus familiaris
test settings: in vivo, read-out: Vdss
quantity name: Vd (L/kg)
Answer in L/kg, number only, no unit symbol.

Look up Vd: C[C@H](c1ccc(F)cc1)N(Cc1cccc(C(=O)O)c1)C(=O)c1cnc2ccccc2c1
7.4
